Would you kindly list CLint scaled at 0.5 μM for each of these compounds?
# PROTOCOL_SUMMARY: Metabolic stability in human liver microsomes, unbound intrinsic clearance (Cl int/fu mic)
# Format: in vitro ADME
# CONDITIONS_USED: human, liver microsomes, pH 7.4, human liver microsomes 0.25 mg/mL, 0.5 μM compound, NADPH, read-out: Cl int, mic unb. (h) [l/h/kg] (unbound intrinsic clearance, human)

// below: answered compounds
{"columns": ["COMPOUND", "DATA_VALUE"],
 "data": [
  ["COc1nc(OCC(F)(F)F)c(F)cc1CNC(=O)[C@@H]1CCCN1 [Example 87]", "< 5 L/h/kg"],
  ["COc1nc(OC2CCC(OC)CC2)c(F)cc1CNC(=O)[C@@H]1CCCN1 (some centres unmarked) [Example 12]", "< 5 L/h/kg"],
  ["COc1nc(N2CCC3C(C2)C3(F)F)c(F)cc1CNC(=O)[C@@H]1CCCN1 (some centres unmarked) [Example 184]", "5 to 50 L/h/kg"]
]}

Hi team, please reply with CLint scaled at 0.5 μM for each item in this list.
1. COc1nc(N2CC(C)OC(C)C2)c(F)cc1CNC(=O)[C@@H]1CCCN1 (some centres unmarked) [Example 174]
2. COc1nc(OC2CCCC(F)(F)C2)c(F)cc1CNC(=O)[C@@H]1CCCN1 (some centres unmarked) [Example 58]

## Result
1: < 5 L/h/kg; 2: < 5 L/h/kg

* * *

Would you kindly list CLint scaled at 0.5 μM for each of these compounds?
# PROTOCOL_SUMMARY: Metabolic stability in human liver microsomes, unbound intrinsic clearance (Cl int/fu mic)
# Assay type: in vitro ADME
# CONDITIONS_USED: human, liver microsomes, pH 7.4, human liver microsomes 0.25 mg/mL, 0.5 μM compound, NADPH, read-out: Cl int, mic unb. (h) [l/h/kg] (unbound intrinsic clearance, human)
Counter-ions that a name gives are not always drawn.

// below: answered compounds
{"columns": ["COMPOUND", "CLint scaled at 0.5 μM"],
 "data": [
  ["COc1nc(OC2CCC(F)(F)CC2)c(F)cc1CNC(=O)C(C)N1CCC1 (centres unmarked) [Example 43]", "< 5 L/h/kg"],
  ["COc1nc(NC2CCC(F)(F)CC2)c(F)cc1CNC(=O)[C@@H]1CCCN1 [Example 126]", "< 5 L/h/kg"]
]}

Hi team, please reply with CLint scaled at 0.5 μM for each item in this list.
1. COc1nc(OC2CCC(C(F)(F)F)CC2)c(F)cc1CNC(=O)[C@@H]1C[C@@H](F)CN1 (some centres unmarked) [Example 35]
2. COc1nc(OC2CC(F)(F)C2)c(F)cc1CNC(=O)[C@H](C)N1CCC1 [Example 101, Hydrochloride]
3. COc1nc(N2CC(Cc3ccccc3)C2)c(F)cc1CNC(=O)[C@@H]1CCCN1 [Example 194]
4. COc1nc(N2CCCC(C(F)(F)F)C2)c(F)cc1CNC(=O)[C@@H]1CCCN1 (some centres unmarked) [Example 153]

## Result
["< 5 L/h/kg", "< 5 L/h/kg", "50 to 500 L/h/kg", "5 to 50 L/h/kg"]

Hi team, please reply with CLint scaled at 0.5 μM for each item in this list.
1. COc1nc(OC(C)C(F)(F)C(F)F)c(F)cc1CNC(=O)[C@@H]1CCCN1 (some centres unmarked) [Example 53]
2. COc1nc(NCc2ccccc2)c(F)cc1CNC(=O)[C@@H]1CCCN1 [Example 170]
3. COc1nc(N2CCCC(F)(F)C2)c(F)cc1CNC(=O)[C@@H]1CCCN1 [Example 156]
4. COc1nc(O[C@H]2CC[C@H](F)CC2)c(F)cc1CNC(=O)[C@@H]1CCCN1 [Example 31]
5. COc1nc(N2CCCCC2)c(F)cc1CNC(=O)[C@@H]1CCCN1 [Example 128]
6. COc1nc(N2CCc3ccccc32)c(F)cc1CNC(=O)[C@@H]1CCCN1 [Example 138, Hydrochloride]
7. COc1nc(N2CC(Oc3ccccc3)C2)c(F)cc1CNC(=O)[C@@H]1CCCN1 [Example 175]

## Result
["< 5 L/h/kg", "< 5 L/h/kg", "< 5 L/h/kg", "< 5 L/h/kg", "< 5 L/h/kg", "5 to 50 L/h/kg", "5 to 50 L/h/kg"]

Hi team, please reply with CLint scaled at 0.5 μM for each item in this list.
1. COc1nc(OCC2(C(F)(F)F)CC2)c(F)cc1CNC(=O)[C@@H]1CCCN1C [Example 63, Hydrochloride]
2. C=CCN(Cc1ccccc1)c1nc(OC)c(CNC(=O)[C@@H]2CCCN2)cc1F [Example 150, Hydrochloride]

## Result
< 5 L/h/kg
5 to 50 L/h/kg

Hi team, please reply with CLint scaled at 0.5 μM for each item in this list.
1. COc1nc(N2CCC(F)(F)CC2)c(F)cc1CNC(=O)[C@@H]1CCCN1 [Example 134]
2. COc1nc(OC2CCC(F)(F)CC2)c(F)cc1CNC(=O)[C@@H]1C[C@@H](C)CN1C [Example 61, Hydrochloride]

## Result
1. < 5 L/h/kg
2. 5 to 50 L/h/kg

* * *

Would you kindly list Emax for each of these molecules?
# SYSTEM: 5-HT2C receptor (Homo sapiens)
# Construct: host or cells: U2OS
# PROTOCOL_SUMMARY: Human 5-HT2C functional assay (beta-arrestin2 recruitment, U2OS_HTR2C_β-Arrestin cells)
# Format: cell-based
# CONDITIONS_USED: relative efficacy vs response to 10 μM 5-HT or maximal 5-HT effect (100%)
Counter-ions that a name gives are not always drawn.

// below: answered molecules
{"columns": ["MOLECULE", "Emax"],
 "data": [
  ["COc1nc(OCC2CCC(F)(F)C2)c(F)cc1CNC(=O)[C@@H]1CCCN1 (some centres unmarked)", "> 70%"],
  ["COc1nc(OC2CCC(OC)CC2)c(F)cc1CNC(=O)[C@@H]1CCCN1C (some centres unmarked)", "> 70%"],
  ["COc1nc(C2=CCC(C(F)(F)F)CC2)c(F)cc1CNC(=O)[C@@H]1CCCN1 (some centres unmarked)", "> 70%"],
  ["COc1nc(OC2CCC3(CC2)CC3(F)F)c(F)cc1CNC(=O)[C@@H]1CCCN1 (some centres unmarked)", "> 70%"],
  ["COCCCCc1nc(OC)c(CNC(=O)[C@@H]2CCCN2)cc1F", "> 70%"],
  ["COc1nc(OCC(F)(F)C(F)(F)C(F)(F)F)c(F)cc1CN(C)C(=O)[C@@H]1CCCN1 [Example 117, Hydrochloride]", "50 to 70%"]
]}

Hi team, please reply with Emax for each item in this list.
1. COc1nc(OC2CCC(C(F)(F)F)CC2)c(F)cc1CNC(=O)[C@@H]1C[C@H]2C[C@H]2N1 (some centres unmarked)
2. COc1nc(OC(C)C(F)(F)C(F)F)c(F)cc1CNC(=O)[C@@H]1CCCN1 (some centres unmarked)

## Result
1: > 70%; 2: > 70%

* * *

# SYSTEM: 5-HT2C receptor (Homo sapiens, UniProt P28335)
# Sequence (P28335 33-458): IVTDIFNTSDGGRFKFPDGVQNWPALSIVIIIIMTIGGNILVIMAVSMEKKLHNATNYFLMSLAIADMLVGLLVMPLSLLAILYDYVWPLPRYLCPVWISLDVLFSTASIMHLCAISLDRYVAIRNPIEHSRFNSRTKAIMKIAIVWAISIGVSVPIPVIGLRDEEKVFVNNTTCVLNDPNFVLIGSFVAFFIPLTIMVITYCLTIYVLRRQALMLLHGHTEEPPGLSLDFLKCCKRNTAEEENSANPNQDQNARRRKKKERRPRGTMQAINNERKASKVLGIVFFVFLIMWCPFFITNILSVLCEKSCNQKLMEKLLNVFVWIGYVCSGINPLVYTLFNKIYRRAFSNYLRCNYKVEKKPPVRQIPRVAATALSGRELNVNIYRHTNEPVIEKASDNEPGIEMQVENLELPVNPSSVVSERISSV
# Sequence (P32121 whole entry partner): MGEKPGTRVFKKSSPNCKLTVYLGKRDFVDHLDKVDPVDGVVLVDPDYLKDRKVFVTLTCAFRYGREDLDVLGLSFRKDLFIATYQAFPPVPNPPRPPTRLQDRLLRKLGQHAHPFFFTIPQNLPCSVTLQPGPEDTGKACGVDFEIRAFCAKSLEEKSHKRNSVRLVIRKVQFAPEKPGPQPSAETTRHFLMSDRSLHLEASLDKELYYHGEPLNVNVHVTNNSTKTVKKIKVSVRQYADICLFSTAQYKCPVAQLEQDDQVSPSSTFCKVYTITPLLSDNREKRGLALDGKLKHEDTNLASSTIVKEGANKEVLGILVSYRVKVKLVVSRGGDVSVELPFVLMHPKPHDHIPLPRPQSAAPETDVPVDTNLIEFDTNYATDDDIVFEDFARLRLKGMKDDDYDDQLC
# PROTOCOL_SUMMARY: Human 5-HT2C functional assay (beta-arrestin2 recruitment, U2OS_HTR2C_β-Arrestin cells)
# CONDITIONS_USED: beta-arrestin2 recruitment, U2OS_HTR2C_β-Arrestin cells, 1.5 h incubation; read-out: EC50 5-HT2C (potency in functional assay)
pEC50: −log10 of the molar value.
Would you kindly list pEC50 for each of these molecules?

Hi team, please reply with pEC50 for each item in this list.
1. COc1nc(OC2CCC(C(C)(F)F)CC2)c(F)cc1CNC(=O)[C@@H]1CCCN1 (single isomer, unassigned; isomer 1) [Example 73]
2. COc1nc(N2CCCCCC2)c(F)cc1CNC(=O)[C@@H]1CCCN1
3. COc1nc(N2CCC(Oc3ccccc3)CC2)c(F)cc1CNC(=O)[C@@H]1CCCN1
4. COc1nc(NCCCc2ccccc2)c(F)cc1CNC(=O)[C@@H]1CCCN1

## Result
1. 6.00 to 6.70
2. 6.70 to 7.70
3. 6.70 to 7.70
4. 6.70 to 7.70

* * *

# SYSTEM: 5-HT2C receptor (Homo sapiens)
# PROTOCOL_SUMMARY: Human 5-HT2C functional assay (beta-arrestin2 recruitment, U2OS_HTR2C_β-Arrestin cells)
# CONDITIONS_USED: beta-arrestin2 recruitment, U2OS_HTR2C_β-Arrestin cells, 1.5 h incubation; read-out: EC50 5-HT2C (potency in functional assay)
# Method: The functional activity of compounds of formula I was assayed by incubation with U2OS_HTR2C_β-Arrestin cells (DiscoverX, 93-0289C3) to induce beta-arrestin2 recruitment to the 5-HT2C receptor. […] The enzyme complementation results in enzyme activity, which is measured following the termination of the agonist incubation using DiscoveRx's detection reagent, which contains a chemiluminescent substrate which produces a high intensity signal. […]
Counter-ions that a name gives are not always drawn.
Would you kindly list EC50 for each of these molecules?

// below: answered molecules
{"columns": ["MOLECULE", "EC50"],
 "data": [
  ["COc1nc(C2CCC(OC)CC2)c(F)cc1CNC(=O)[C@@H]1CCCN1 (stereo partly shown) [Example 172]", "20 to 200 nM"],
  ["COc1nc(N2CC3C(C2)C3(F)F)c(F)cc1CNC(=O)[C@@H]1CCCN1 (stereo partly shown) [Example 183]", "20 to 200 nM"],
  ["COc1nc(OCCC(F)(F)C(F)(F)F)c(F)cc1CNC(=O)[C@@H]1CCCN1 [Example 45]", "< 20 nM"],
  ["COc1nc(N2CCC(F)C2)c(F)cc1CNC(=O)[C@@H]1CCCN1 (stereo partly shown) [Example 162]", "20 to 200 nM"],
  ["COc1nc(N2CCC(F)(F)C(C(F)F)C2)c(F)cc1CNC(=O)[C@@H]1CCCN1 (stereo partly shown) [Example 190, Hydrochloride]", "< 20 nM"],
  ["COc1nc(O[C@H]2CCC(F)(F)C2)c(F)cc1CNC(=O)[C@@H]1CCCN1C [Example 26, Hydrochloride]", "< 20 nM"]
]}

Hi team, please reply with EC50 for each item in this list.
1. COc1nc(N2CC(C)(Oc3ccccc3)C2)c(F)cc1CNC(=O)[C@@H]1CCCN1 [Example 176]
2. COc1nc(OCc2cc(F)cc(F)c2)c(F)cc1CN(C)C(=O)[C@@H]1CCCN1 [Example 122, Hydrochloride]
3. COc1nc(C2CC2C(F)(F)F)c(F)cc1CNC(=O)[C@@H]1CCCN1 (stereo partly shown) [Example 139]
4. COc1nc(OC2CCC(F)(F)CC2)c(F)cc1CNC(=O)[C@@H]1C[C@@H](F)CN1 [Example 34]
5. COc1nc(OCC(F)(F)C(F)(F)C(F)(F)F)c(F)cc1CNC(=O)[C@@H]1CCCN1 [Example 110, Hydrochloride]
6. COc1nc(NCC2(C(F)(F)F)CC2)c(F)cc1CNC(=O)[C@@H]1CCCN1 [Example 152]
7. COc1nc(N[C@H]2CC[C@@H](C(F)(F)F)CC2)c(F)cc1CNC(=O)[C@@H]1CCCN1 [Example 141]
8. COc1nc(N2CCC(C3CCC(C(F)(F)F)CC3)CC2)c(F)cc1CNC(=O)[C@@H]1CCCN1 (stereo partly shown) [Example 180]

## Result
["< 20 nM", "< 20 nM", "200 to 1000 nM", "< 20 nM", "< 20 nM", "< 20 nM", "< 20 nM", "200 to 1000 nM"]

Hi team, please reply with EC50 for each item in this list.
1. COc1nc(NCC2CC(F)(F)C2)c(F)cc1CNC(=O)[C@@H]1CCCN1 [Example 136]
2. COc1nc(O[C@H]2CC[C@H](F)CC2)c(F)cc1CNC(=O)[C@@H]1CCCN1 [Example 31]
3. COc1nc(O[C@@H]2CCC(F)(F)C2)c(F)cc1CNC(=O)[C@@H]1CCCN1C [Example 27, Hydrochloride]
4. COc1nc(OCC2CC2(F)F)c(F)cc1CNC(=O)[C@@H]1CCCN1C (stereo partly shown) [Example 68, Hydrochloride]
5. COc1nc(NC2CCC2)c(F)cc1CNC(=O)[C@@H]1CCCN1 [Example 146]

## Result
1: < 20 nM; 2: < 20 nM; 3: < 20 nM; 4: < 20 nM; 5: 20 to 200 nM

Hi team, please reply with EC50 for each item in this list.
1. COc1nc(OC2CCCC(F)(F)C2)c(F)cc1CNC(=O)[C@@H]1CCCN1 (stereo partly shown) [Example 58]
2. COc1nc(OC(C)C(F)(F)C(F)F)c(F)cc1CNC(=O)[C@@H]1CCCN1 (stereo partly shown) [Example 53]
3. COc1nc(OCC(F)F)c(F)cc1CNC(=O)[C@@H]1CCCN1 [Example 86]
4. COc1nc(N2CC(Oc3ccccc3)C2)c(F)cc1CNC(=O)[C@@H]1CCCN1 [Example 175]
5. COc1nc(OC2CCC(OC(F)F)CC2)c(F)cc1CNC(=O)[C@@H]1CCCN1 (stereo partly shown) [Example 67]
6. COc1nc(OCc2cc(F)cc(F)c2)c(F)cc1CNC(=O)[C@@H]1CCCN1 [Example 5, Hydrochloride]
7. COc1nc(N2C[C@@H]3CC(F)(F)C[C@@H]3C2)c(F)cc1CNC(=O)[C@@H]1CCCN1 [Example 181]

## Result
["< 20 nM", "< 20 nM", "< 20 nM", "20 to 200 nM", "< 20 nM", "< 20 nM", "< 20 nM"]

Hi team, please reply with EC50 for each item in this list.
1. COc1nc(OCC2CCC(C(F)(F)F)CC2)c(F)cc1CNC(=O)[C@@H]1CCCN1C (stereo partly shown) [Example 15]
2. COc1nc(OCC(F)(F)F)c(F)cc1CNC(=O)[C@@H]1CCCN1C [Example 100, Hydrochloride]

## Result
1. < 20 nM
2. < 20 nM
